# Test system: S. aureus ATCC 29213
# method.description: MIC by NCCLS microdilution, antibacterial agents with and without EPI
# Type: cell-based
# assay.conditions: VX-710 100 μg/ml
parameter.measured: MIC in the presence of 4X MEC of EPI, VX-710 (µg/mL)
Dear colleague, please return just the value in µg/mL, with no unit written.

Before answering, review these 2 worked examples.
compound	units.text	test.result
CCn1cc(C(=O)O)c(=O)c2cc(F)c(N3CCNCC3)cc21 [norfloxacin, reference compound]	µg/mL	0.25
CO[C@@H]1[C@@H](OC(N)=O)[C@@H](O)[C@H](Oc2ccc3c(O)c(NC(=O)c4ccc(O)c(CC=C(C)C)c4)c(=O)oc3c2C)OC1(C)C	µg/mL	0.063

QUERY: Which MIC in the presence of 4X MEC of EPI, VX-710 is reported for this compound? `CO/N=C(\C(=O)N[C@@H]1C(=O)N2C(C(=O)O)=C(CSc3nc(=O)c(=O)[nH]n3C)CS[C@H]12)c1csc(N)n1`
RESULT: 4
